System: LOX IMVI melanoma
methodSummary: NCI-60 one-dose screen, 48 h
appliedConditions: 10 µM unless noted
The panel holds about 83,000 compounds, 20% with a hit somewhere; the sample as a whole holds those more often. Calls of active or inactive are those of the source. How the source made its calls: active means growth percent below 10; inactive means the rest.
Possible outcomes: active, inactive

{"molecule": "COc1cc2c(cc1OC)C(=O)/C(=C/c1cc(C)c(O)c(C)c1)S2", "categoryLabel": "inactive"}
{"molecule": "CCCC/C=N/NC(=S)NCc1ccccc1", "categoryLabel": "inactive"}
{"molecule": "COc1cc(/C=C/C(=O)c2nc3cc(F)ccc3nc2C)cc(OC)c1OC", "categoryLabel": "inactive"}
{"molecule": "COc1ccc2nc(-c3ccc(-c4noc(-c5cc(OC)c(OC)c(OC)c5)n4)cc3)[nH]c2c1", "categoryLabel": "inactive"}
{"molecule": "COc1cc(C2C3=C(COC3=O)N(CCO)c3cc4c(cc32)OCO4)cc(OC)c1OC (centres undefined)", "categoryLabel": "inactive"}
{"molecule": "COc1cc(/C=C\\c2cc(OC)c(OC)c(OC)c2)cc(NC(=O)/C=C/c2cc(OC)c(OC)c(OC)c2)c1OC", "categoryLabel": "inactive"}
{"molecule": "Nc1c(S(=O)(=O)O)cc2c3c(cccc13)C(=O)OC2=O", "categoryLabel": "inactive"}
{"molecule": "Cc1cccc(C)c1N=c1oc2ccc(Cl)cc2nc1-c1ccccc1O", "categoryLabel": "inactive"}
{"molecule": "O=C1NN(C(=O)c2ccccc2)C(c2ccc(Cl)c(Cl)c2)=C/C1=C\\c1ccc([N+](=O)[O-])cc1", "categoryLabel": "inactive"}
{"molecule": "O=C(CSc1nc2sc3c(c2c(=O)n1-c1ccc(Cl)cc1)CCCC3)Nc1nc(-c2cccc(Br)c2)cs1", "categoryLabel": "inactive"}
{"molecule": "NC(=O)Nc1ccc(-n2cnc3cc(-c4ccc(O)cc4)ccc32)cc1", "categoryLabel": "inactive"}
{"molecule": "O=[N+]([O-])CC(c1ccccc1F)c1c[nH]c2ccccc12 (centres undefined)", "categoryLabel": "inactive"}
{"molecule": "Cc1ccc(-n2nc3c(c(C#N)c2=O)CC(c2ccccc2[N+](=O)[O-])C([N+](=O)[O-])=C3O)cc1 (centres undefined)", "categoryLabel": "inactive"}
{"molecule": "CCc1ccc(-c2cn3ccnc3c(-c3ccc4ncn(Cc5ccccc5)c4c3)n2)cc1", "categoryLabel": "inactive"}
{"molecule": "O=C(O)c1ccc2c(c1)C(=O)N(Cc1ccccc1)C2=O", "categoryLabel": "inactive"}
{"molecule": "CC(C)=CCC[C@](C)(O)[C@H]1CC[C@]2(C)[C@@H]1CC[C@@H]1[C@@]3(C)C/C(=C/c4ccccc4)C(=O)C(C)(C)[C@@H]3CC[C@]12C", "categoryLabel": "inactive"}
{"molecule": "O=C(Nc1ccc(F)cc1)Nc1ccc(NC(=O)c2cc(Cl)nc3ccccc23)cc1", "categoryLabel": "inactive"}
{"molecule": "COc1cc(/C=N/NC(=O)c2cnn3c2NC(c2ccccc2)C3)ccc1OCc1ccccc1 (centres undefined)", "categoryLabel": "inactive"}
{"molecule": "NC(=NCCCOc1ccc(F)cc1)Nc1ccc(Cl)cc1", "categoryLabel": "inactive"}
{"molecule": "COC1=CC(=O)c2ccccc2C1=O", "categoryLabel": "active"}
{"molecule": "CC(=O)Nc1cccc(-c2ccc3c(c2)NC(=O)/C3=C\\c2ccc[nH]2)c1", "categoryLabel": "inactive"}
{"molecule": "CCCCCOc1ccc(/C=N/Nc2cc(C)nc3ccc(Cl)cc23)cc1", "categoryLabel": "active"}
{"molecule": "CCOC(=O)c1cc(C(=O)c2cc(OC)cc(OC)c2)n2ccc3ccccc3c12", "categoryLabel": "inactive"}
{"molecule": "CN(C)CC(O)c1ccc(/C=C/c2ccc(Cl)cc2)cc1 (centres undefined)", "categoryLabel": "active"}
{"molecule": "Cn1ccnc1C(=O)/C=C/c1ccc(CC(=O)NC2CCCCC2)cc1", "categoryLabel": "inactive"}
{"molecule": "COc1cc2c(-c3cc4c(cc3CNCCc3ccc5c(c3)OCO5)OCO4)cccc2c(OC)c1O", "categoryLabel": "inactive"}
{"molecule": "C=C(C)[C@@H]1CC[C@]2(C(=O)N3CCN(C)CC3)CC[C@]3(C)[C@H](CC[C@@H]4[C@@]5(C)CC[C@H](O)C(C)(C)[C@@H]5CC[C@]43C)[C@@H]12", "categoryLabel": "active"}
{"molecule": "CCCOc1ccc(/C=N/Nc2cc(C)nc3ccc(Cl)cc23)cc1", "categoryLabel": "active"}
{"molecule": "O=C1Nc2cc(-c3cccc([N+](=O)[O-])c3)ccc2/C1=C/c1ccc[nH]1", "categoryLabel": "inactive"}
{"molecule": "COc1ccc(C(=O)c2cc(OC)c(OC)c(OC)c2)cc1O", "categoryLabel": "inactive"}
{"molecule": "O=C(CCN1CCCC1)Nc1ccc2c(NCCCCc3ccccc3)c3ccccc3nc2c1", "categoryLabel": "active"}
{"molecule": "COc1cc2cc(CN3CCN(c4nccc(-c5ccc6ccccc6c5)n4)CC3)c(=O)[nH]c2cc1OC", "categoryLabel": "inactive"}
{"molecule": "Cn1cc(-c2csc(-c3c[nH]c4ccccc34)n2)c2ccnc(Cl)c21", "categoryLabel": "inactive"}
{"molecule": "C[C@H]1[C@H](C)CC[C@]2(C(=O)Nc3ccc4ncccc4c3)CC[C@]3(C)C(=CC[C@@H]4[C@@]5(C)CCCNC(C)(C)[C@@H]5CC[C@]43C)[C@H]12", "categoryLabel": "active"}
{"molecule": "O=c1ccc(-c2nc(N3CCOCC3)c3ccccc3n2)c[nH]1", "categoryLabel": "inactive"}
{"molecule": "O=C(/C=C/c1ccc(Cl)cc1)c1ccc(NC(=O)N2CCN(c3cc4c(cc3F)c(=O)c(C(=O)O)cn4C3CC3)CC2)cc1", "categoryLabel": "active"}
{"molecule": "C#CCNC(=O)c1cccc2c1cc(C)n2-c1nc2c(c(NCc3ccccc3)n1)CCCC2", "categoryLabel": "active"}
{"molecule": "C#Cc1cccc(NC(=O)Nc2cccc(NC(=O)CCl)c2)c1", "categoryLabel": "active"}
{"molecule": "Cn1ccc2c1CC1CN(Cc3ccco3)C(=O)C1C2C(=O)O (centres undefined)", "categoryLabel": "inactive"}
